Biological target: HEK cells stably transfected with tetracycline inducible hNR1 and hNR2A (Homo sapiens, UniProt Q05586+Q12879)
Construct: expressed in transfected cells; host or cells: HEK cells, stably transfected, tetracycline/doxycycline inducible
Sequence (Q12879 23-1464, other chains not shown): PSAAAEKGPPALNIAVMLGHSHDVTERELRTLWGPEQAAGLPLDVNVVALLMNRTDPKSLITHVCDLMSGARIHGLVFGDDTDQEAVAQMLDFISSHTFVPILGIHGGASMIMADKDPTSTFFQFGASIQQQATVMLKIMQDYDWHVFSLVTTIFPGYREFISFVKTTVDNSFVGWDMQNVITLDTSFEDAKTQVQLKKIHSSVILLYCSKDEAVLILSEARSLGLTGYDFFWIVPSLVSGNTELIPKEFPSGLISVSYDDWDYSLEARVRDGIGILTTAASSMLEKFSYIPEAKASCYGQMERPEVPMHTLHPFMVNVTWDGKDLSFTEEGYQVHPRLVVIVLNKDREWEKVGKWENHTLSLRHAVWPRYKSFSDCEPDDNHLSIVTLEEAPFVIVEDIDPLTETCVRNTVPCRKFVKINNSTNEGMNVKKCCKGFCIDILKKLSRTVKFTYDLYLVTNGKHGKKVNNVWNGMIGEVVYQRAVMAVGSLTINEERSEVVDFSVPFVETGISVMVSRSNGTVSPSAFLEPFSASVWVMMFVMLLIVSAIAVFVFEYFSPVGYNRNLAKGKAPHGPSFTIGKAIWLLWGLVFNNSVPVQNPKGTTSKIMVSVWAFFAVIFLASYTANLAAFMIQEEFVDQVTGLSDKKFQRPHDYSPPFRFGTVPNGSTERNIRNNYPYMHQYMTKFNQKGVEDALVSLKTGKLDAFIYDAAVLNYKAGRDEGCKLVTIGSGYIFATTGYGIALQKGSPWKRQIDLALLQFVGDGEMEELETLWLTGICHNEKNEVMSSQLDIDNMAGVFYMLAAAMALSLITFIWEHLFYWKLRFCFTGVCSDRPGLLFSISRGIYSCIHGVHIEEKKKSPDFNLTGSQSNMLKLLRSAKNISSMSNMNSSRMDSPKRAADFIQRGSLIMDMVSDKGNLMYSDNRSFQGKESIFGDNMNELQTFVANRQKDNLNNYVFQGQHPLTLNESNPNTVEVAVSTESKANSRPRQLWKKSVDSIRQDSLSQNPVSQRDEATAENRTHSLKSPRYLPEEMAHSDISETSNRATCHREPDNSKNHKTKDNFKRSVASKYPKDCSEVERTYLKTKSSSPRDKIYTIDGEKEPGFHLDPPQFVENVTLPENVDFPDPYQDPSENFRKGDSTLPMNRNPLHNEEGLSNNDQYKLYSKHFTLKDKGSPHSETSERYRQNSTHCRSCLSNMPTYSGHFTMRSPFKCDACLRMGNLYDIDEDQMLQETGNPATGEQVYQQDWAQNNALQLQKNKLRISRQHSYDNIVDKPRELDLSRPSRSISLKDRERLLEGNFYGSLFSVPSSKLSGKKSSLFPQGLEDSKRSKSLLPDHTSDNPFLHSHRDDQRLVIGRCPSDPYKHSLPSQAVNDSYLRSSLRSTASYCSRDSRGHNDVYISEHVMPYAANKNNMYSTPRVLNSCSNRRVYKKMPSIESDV
Test: Assay 1: Cell-Based Assay, cytosolic calcium response to positive allosteric modulators (with 30 μM glycine and 300 nM L-glutamate, EC30)
Details: Table 2; responses scaled relative to 100 μM L-glutamate maximal response (100%) and 0 μM L-glutamate (0%)
Method: Assay 1: Cell-Based Assay HEK cells stably transfected with tetracycline inducible hNR1 and hNR2A were seeded into clear bottom 384 well poly-D-lysine coated plates (2.5×10^4 cells per well) in Minimum Essential Media (MEM; without L-) including 7.5 μg mL^−1 doxycycline and 500 μM (+)-ketamine. The cells were incubated at 37° C. in 5% CO2 for 24 h. […] Compounds were added after a 10 second baseline read and maximum level of relative fluorescence units (RFU) was measured over a 5 min period. […]
VALUE_TYPE: Max % (%)

Examples with answers:
[[record]]
molecule = "Cc1sc2nc(Cc3ccc(F)c(C#N)c3)cc(=O)n2c1[C@@H]1C[C@H]1CO (relative stereo) [Example 20.9]"
reported = 133

[[record]]
molecule = "CCN(Cc1cc(=O)n2c(-c3ccccc3)c(C)sc2n1)c1ccc(F)cc1 [Example 5.22]"
reported = 142

[[record]]
molecule = "CCOCc1c(C)sc2nc(CN(CC)c3ccc(F)cc3)cc(=O)n12 [Example 10.16]"
reported = 147

[[record]]
molecule = "CCN(Cc1cc(=O)n2c([C@@H]3C[C@H]3CO)c(C)sc2n1)c1ccc(F)cc1 (relative stereo) [Example 5.17]"
reported = 176

[[record]]
molecule = "Cc1sc2nc(COc3ccc(F)cc3)cc(=O)n2c1[C@@H]1C[C@H]1C(F)(F)F (relative stereo) [Example 4.24]"
reported = 80


A: Cc1sc2nc(Cc3cc(C#N)ccc3F)cc(=O)n2c1[C@@H]1C[C@H]1CO (relative stereo) [Example 20.7]
B: CNC(=O)c1c(C)sc2nc(Cc3cc(C#N)ccc3F)cc(=O)n12 [Example 21.50]
Input: Lab note: check whether A or B shows the higher recorded Max %. Pick one and reply with its label.
Output: A
(A: 137%, B: 76.1%)

* * *

Target: HEK cells stably transfected with tetracycline inducible hNR1 and hNR2A (Homo sapiens, UniProt Q05586+Q12879)
Construct: expressed in transfected cells; host or cells: HEK cells, stably transfected, tetracycline/doxycycline inducible
Test: Assay 1: Cell-Based Assay, cytosolic calcium response to positive allosteric modulators (with 30 μM glycine and 300 nM L-glutamate, EC30)
Settings: Table 3; cytosolic calcium response, with 30 μM glycine and 300 nM L-glutamate (EC30); — = no plateau was reached
pEC50: −log10 of the molar value.
VALUE_TYPE: pEC50

[[record]]
compound = "Cc1sc2nc(Oc3cccc(C(F)(F)F)c3)c(F)c(=O)n2c1C1CC1CO (stereo not shown)"
reported = 4.61

[[record]]
compound = "O=c1cc(Cn2nc(C(F)(F)F)cc2Cl)nc2sc(C(F)(F)F)c(C3CC3)n12"
reported = 5.00


a: CCNC(=O)c1c(C(C)C)sc2nc(Cc3cccc(C(F)(F)F)c3F)cc(=O)n12
b: Cc1sc2nc(Cn3nc(C(F)(F)F)cc3Cl)cc(=O)n2c1-c1cccnc1F
Input: Lab note: check whether a or b shows the higher recorded pEC50. Pick one and reply with its label.
Output: b

* * *

Target: HEK cells stably transfected with tetracycline inducible hNR1 and hNR2A (Homo sapiens, UniProt Q05586+Q12879)
Construct: expressed in transfected cells; host or cells: HEK cells, stably transfected, tetracycline/doxycycline inducible
Assay: Assay 1: Cell-Based Assay, cytosolic calcium response to positive allosteric modulators (with 30 μM glycine and 300 nM L-glutamate, EC30)
Conditions: Table 2; responses scaled relative to 100 μM L-glutamate maximal response (100%) and 0 μM L-glutamate (0%)
VALUE_TYPE: Max % (%)

Examples with answers:
[[record]]
compound = "CCN(Cc1cc(=O)n2c(CN(C)C)c(C)sc2n1)c1ccc(F)cc1"
reported = 127

[[record]]
compound = "CCNC(=O)c1c(C)sc2nc(Cc3cc(C#N)ccc3C)cc(=O)n12"
reported = 100

[[record]]
compound = "CNC(=O)c1c(C)sc2nc(Cc3ccc(F)c(F)c3)cc(=O)n12"
reported = 46

[[record]]
compound = "CCN(Cc1cc(=O)n2c(C3CC3C(N)=O)c(C)sc2n1)c1ccc(F)cc1 (centres unmarked)"
reported = 163

[[record]]
compound = "CNC(=O)c1c(C)sc2nc(Cc3cc(F)ccc3F)cc(=O)n12"
reported = 49


P: CCCc1c(C)sc2nc(CN(CC)c3ccc(F)cc3)cc(=O)n12
Q: Cc1sc2nc(Cn3nccc3C(F)(F)F)cc(=O)n2c1-c1cncnc1
Input: Lab note: check whether P or Q shows the higher recorded Max %. Pick one and reply with its label.
Output: P

1: CCN(Cc1cc(=O)n2c3c(sc2n1)CCCC3)c1ccc(F)cc1
2: CNC(=O)c1c(C)sc2nc(Cc3ccc(F)cc3C(F)(F)F)cc(=O)n12
Input: Please compare: 1 and 2 . Report which one has the smaller Max % value. Pick one and reply with its label.
Output: 2
(2: 42.5%, 1: 122%)

* * *

Target: HEK cells stably transfected with tetracycline inducible hNR1 and hNR2A (Homo sapiens, UniProt Q05586+Q12879)
Construct: expressed in transfected cells; host or cells: HEK cells, stably transfected, tetracycline/doxycycline inducible
Assay: Assay 1: Cell-Based Assay, cytosolic calcium response to positive allosteric modulators (with 30 μM glycine and 300 nM L-glutamate, EC30)
Conditions: Table 2; cytosolic calcium response, with 30 μM glycine and 300 nM L-glutamate (EC30); — = no plateau was reached
VALUE_TYPE: EC50 (µM)

Examples with answers:
[[record]]
molecule = "Cc1sc2nc(Cc3cccc(C#N)c3)c(F)c(=O)n2c1C1CC1CO (centres unmarked) [Example 20.2]"
reported = 7.4

[[record]]
molecule = "Cc1sc2nc(Cn3nc(C4CC4)cc3C3CC3)cc(=O)n2c1[C@@H]1C[C@H]1CO (relative stereo) [Example 15.17]"
reported = 3.4

[[record]]
molecule = "Cc1sc2nc(Cc3cccc(C#N)c3F)cc(=O)n2c1C1CC1C#N (centres unmarked) [Example 23.2]"
reported = 2.6

[[record]]
molecule = "Cc1sc2nc(Cn3nc(CCO)cc3C(F)(F)F)cc(=O)n2c1[C@@H]1C[C@H]1CO (relative stereo) [Example 15.8]"
reported = 30.8

[[record]]
molecule = "CCN(Cc1cc(=O)n2c(CCC#N)c(C)sc2n1)c1ccc(F)cc1 [Example 13.7]"
reported = 0.547


A: CCN(Cc1cc(=O)n2c(-c3cncc(C#N)c3)c(C)sc2n1)c1ccc(F)cc1 [Example 5.35]
B: Cc1sc2nc(Cn3nc(C4CC4)cc3C)cc(=O)n2c1C1CC1CO (single isomer, unassigned) [Example 15.16]
Input: Please compare: A and B . Report which one has the smaller EC50 value. Pick one and reply with its label.
Output: A
(A: 2.7 µM, B: 17.7 µM)

* * *

Molecular target: HEK cells stably transfected with tetracycline inducible hNR1 and hNR2A (Homo sapiens, UniProt Q05586+Q12879)
Construct: expressed in transfected cells; host or cells: HEK cells, stably transfected, tetracycline/doxycycline inducible
Test: Assay 1: Cell-Based Assay, cytosolic calcium response to positive allosteric modulators (with 30 μM glycine and 300 nM L-glutamate, EC30)
Settings: Table 2; responses scaled relative to 100 μM L-glutamate maximal response (100%) and 0 μM L-glutamate (0%)
VALUE_TYPE: Max % (%)

[[record]]
compound = "Cc1sc2nc(COc3ccc(F)cc3)cc(=O)n2c1C1CC1CO (single isomer, unassigned) [Example 4.3]"
reported = 71.6

[[record]]
compound = "CNC(=O)c1c(C)sc2nc(Cc3cccc(OC(F)(F)F)c3)cc(=O)n12"
reported = 82.3

[[record]]
compound = "Cc1sc2nc(COc3ccc(F)cc3)cc(=O)n2c1C(N)=O"
reported = 47.4

[[record]]
compound = "Cc1cc(C2CC2)n(Cc2cc(=O)n3c([C@@H]4C[C@H]4CO)c(C)sc3n2)n1 (single isomer, unassigned) [Example 15.13]"
reported = 67.6


* * *

Target: HEK cells stably transfected with tetracycline inducible hNR1 and hNR2A (Homo sapiens, UniProt Q05586+Q12879)
Construct: expressed in transfected cells; host or cells: HEK cells, stably transfected, tetracycline/doxycycline inducible
Test: Assay 1: Cell-Based Assay, cytosolic calcium response to positive allosteric modulators (with 30 μM glycine and 300 nM L-glutamate, EC30)
Settings: Table 3; cytosolic calcium response, with 30 μM glycine and 300 nM L-glutamate (EC30); — = no plateau was reached
Protocol: Assay 1: Cell-Based Assay HEK cells stably transfected with tetracycline inducible hNR1 and hNR2A were seeded into clear bottom 384 well poly-D-lysine coated plates (2.5×10^4 cells per well) in Minimum Essential Media (MEM; without L-) including 7.5 μg mL^−1 doxycycline and 500 μM (+)-ketamine. The cells were incubated at 37° C. in 5% CO2 for 24 h. […] Compounds were added after a 10 second baseline read and maximum level of relative fluorescence units (RFU) was measured over a 5 min period. […]
pEC50: −log10 of the molar value.
VALUE_TYPE: pEC50

Examples with answers:
[[record]]
molecule = "CCNC(=O)c1c(C)sc2nc(Cn3nc(C(F)(F)F)cc3CC(C)C)cc(=O)n12"
value_type = "pEC50"
reported = 5.32

[[record]]
molecule = "CCNC(=O)c1c(OC)sc2nc(Cn3nc(C(F)(F)F)cc3C3CC3)cc(=O)n12"
value_type = "pEC50"
reported = 6.11

[[record]]
molecule = "O=c1cc(Cn2nc(Cl)cc2C(F)(F)F)nc2scc(Cl)n12"
value_type = "pEC50"
reported = 4.35

[[record]]
molecule = "CCNC(=O)c1c(C)sc2nc(Cc3cccc(C(F)F)c3F)c(F)c(=O)n12"
value_type = "pEC50"
reported = 5.38


a: Cc1sc2nc(Cc3cccc(C(F)(F)F)c3F)cc(=O)n2c1C(=O)NC(C)C
b: Cc1sc2nc(Cn3nc(C(F)(F)F)cc3Cl)cc(=O)n2c1C1CC1
c: CCNC(=O)Cc1c(C)sc2nc(Cc3cccc(C(F)(F)F)c3F)cc(=O)n12
d: CC1CC1c1c(Cl)sc2nc(Cc3cccc(C(F)(F)F)c3F)cc(=O)n12 (centres unmarked)
Input: Your job: order these 4 records by pEC50, ascending. Would you mind listing the labels in the order requested?
Output: d, a, c, b
(d: 4.75, a: 5.47, c: 5.86, b: 6.45)
